molecular target: EGFR del19/T790M/C797S (Homo sapiens, UniProt P00533, C797S/DEL746-750/T790M); assay: Biochemical EGFR kinase assay (Lance Ultra TR-FRET), triple mutant del19/T790M/C797S; conditions: Km ATP; read-out: IC50 del19/T790M/C797S (nM) Km ATP
Sequence (P00533 with tags, fused parts or gaps DEL746-750/T790M/C797S): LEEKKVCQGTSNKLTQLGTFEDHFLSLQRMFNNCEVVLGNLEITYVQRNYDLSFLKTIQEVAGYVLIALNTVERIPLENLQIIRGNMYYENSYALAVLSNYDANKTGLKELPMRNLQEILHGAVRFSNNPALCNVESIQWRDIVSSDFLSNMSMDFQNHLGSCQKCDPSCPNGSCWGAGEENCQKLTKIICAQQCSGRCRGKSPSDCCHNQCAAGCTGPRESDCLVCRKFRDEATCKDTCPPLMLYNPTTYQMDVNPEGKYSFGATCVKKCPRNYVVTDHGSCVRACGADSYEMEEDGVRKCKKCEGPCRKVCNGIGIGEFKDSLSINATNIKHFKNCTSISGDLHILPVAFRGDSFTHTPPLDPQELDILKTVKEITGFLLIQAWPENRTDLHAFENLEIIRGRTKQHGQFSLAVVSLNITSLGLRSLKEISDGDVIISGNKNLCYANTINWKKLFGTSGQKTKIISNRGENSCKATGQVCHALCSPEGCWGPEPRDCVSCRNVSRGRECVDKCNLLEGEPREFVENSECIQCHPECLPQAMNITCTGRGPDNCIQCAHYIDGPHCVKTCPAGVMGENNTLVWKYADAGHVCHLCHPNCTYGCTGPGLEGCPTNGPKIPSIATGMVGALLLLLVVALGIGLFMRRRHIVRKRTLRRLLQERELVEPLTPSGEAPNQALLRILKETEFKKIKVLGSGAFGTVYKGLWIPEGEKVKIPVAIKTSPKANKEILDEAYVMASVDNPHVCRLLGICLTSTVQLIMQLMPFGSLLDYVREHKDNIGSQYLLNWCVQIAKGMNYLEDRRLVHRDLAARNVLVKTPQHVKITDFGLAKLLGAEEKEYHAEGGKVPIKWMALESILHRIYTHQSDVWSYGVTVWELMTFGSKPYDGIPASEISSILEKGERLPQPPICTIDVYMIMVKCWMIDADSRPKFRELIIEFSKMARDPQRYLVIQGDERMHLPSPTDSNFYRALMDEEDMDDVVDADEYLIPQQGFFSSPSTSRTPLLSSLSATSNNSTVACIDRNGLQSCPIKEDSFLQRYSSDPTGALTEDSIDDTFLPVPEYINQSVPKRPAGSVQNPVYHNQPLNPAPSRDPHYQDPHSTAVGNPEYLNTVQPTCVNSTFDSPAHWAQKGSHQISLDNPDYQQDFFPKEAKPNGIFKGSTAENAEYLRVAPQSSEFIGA
Kindly state IC50 for each of the entries shown.
Give bare numbers, in nM.

// known answers, use as guide
COMPOUND | TEST_TARGET | MEASUREMENT_UNITS | OBSERVED_MEASUREMENT
O=S(=O)(C1CC1)n1cc(-c2nccc(Nc3cc(NCC4CCC(NCCF)CC4)c(-c4ccn(C(F)F)n4)cn3)n2)cn1 (stereo not drawn) | EGFR del19/T790M/C797S (Homo sapiens, UniProt P00533, C797S/DEL746-750/T790M) | nM | 0.3
O=S(=O)(C1CC1)n1cc(-c2nccc(Nc3cc(N[C@H]4CC[C@@H](CO)CC4)c(-c4ccn(C5COC5)n4)cn3)n2)cn1 | EGFR del19/T790M/C797S (Homo sapiens, UniProt P00533, C797S/DEL746-750/T790M) | nM | 0.3
Cc1nn(CC(F)(F)F)cc1-c1nccc(Nc2cc(N[C@H]3CC[C@@](C)(O)CC3)c(-c3ccn(C(F)F)n3)cn2)n1 | EGFR del19/T790M/C797S (Homo sapiens, UniProt P00533, C797S/DEL746-750/T790M) | nM | 0.4
O=S(=O)(C1CC1)n1cc(-c2nccc(Nc3cc(NC[C@H]4CC[C@@H](O)C4)c(-c4ccn(CC(F)(F)F)n4)cn3)n2)cn1 | EGFR del19/T790M/C797S (Homo sapiens, UniProt P00533, C797S/DEL746-750/T790M) | nM | 2.5
Cn1ccc(-c2cnc(Nc3ccnc(-c4cnn(S(=O)(=O)C5CC5)c4)n3)cc2N[C@H]2CCC[C@H](CO)C2)n1 | EGFR del19/T790M/C797S (Homo sapiens, UniProt P00533, C797S/DEL746-750/T790M) | nM | 0.4

Turning now to a further compound:
# lookup: `O=S(=O)(C1CC1)n1cc(-c2nccc(Nc3cc(N[C@H]4CC[C@@H](F)CC4)c(-c4ccn(C(F)F)n4)cn3)n2)cn1` on EGFR del19/T790M/C797S (Homo sapiens, UniProt P00533, C797S/DEL746-750/T790M), IC50 = 1.6

====

biological target: EGFR L858R/C797S (Homo sapiens, UniProt P00533, C797S/L858R); assay: Biochemical EGFR kinase assay (Lance Ultra TR-FRET), double mutant L858R/C797S; conditions: Km ATP; read-out: IC50 L858R/C797S (nM) Km ATP
Sequence (P00533 25-1210 C797S/L858R): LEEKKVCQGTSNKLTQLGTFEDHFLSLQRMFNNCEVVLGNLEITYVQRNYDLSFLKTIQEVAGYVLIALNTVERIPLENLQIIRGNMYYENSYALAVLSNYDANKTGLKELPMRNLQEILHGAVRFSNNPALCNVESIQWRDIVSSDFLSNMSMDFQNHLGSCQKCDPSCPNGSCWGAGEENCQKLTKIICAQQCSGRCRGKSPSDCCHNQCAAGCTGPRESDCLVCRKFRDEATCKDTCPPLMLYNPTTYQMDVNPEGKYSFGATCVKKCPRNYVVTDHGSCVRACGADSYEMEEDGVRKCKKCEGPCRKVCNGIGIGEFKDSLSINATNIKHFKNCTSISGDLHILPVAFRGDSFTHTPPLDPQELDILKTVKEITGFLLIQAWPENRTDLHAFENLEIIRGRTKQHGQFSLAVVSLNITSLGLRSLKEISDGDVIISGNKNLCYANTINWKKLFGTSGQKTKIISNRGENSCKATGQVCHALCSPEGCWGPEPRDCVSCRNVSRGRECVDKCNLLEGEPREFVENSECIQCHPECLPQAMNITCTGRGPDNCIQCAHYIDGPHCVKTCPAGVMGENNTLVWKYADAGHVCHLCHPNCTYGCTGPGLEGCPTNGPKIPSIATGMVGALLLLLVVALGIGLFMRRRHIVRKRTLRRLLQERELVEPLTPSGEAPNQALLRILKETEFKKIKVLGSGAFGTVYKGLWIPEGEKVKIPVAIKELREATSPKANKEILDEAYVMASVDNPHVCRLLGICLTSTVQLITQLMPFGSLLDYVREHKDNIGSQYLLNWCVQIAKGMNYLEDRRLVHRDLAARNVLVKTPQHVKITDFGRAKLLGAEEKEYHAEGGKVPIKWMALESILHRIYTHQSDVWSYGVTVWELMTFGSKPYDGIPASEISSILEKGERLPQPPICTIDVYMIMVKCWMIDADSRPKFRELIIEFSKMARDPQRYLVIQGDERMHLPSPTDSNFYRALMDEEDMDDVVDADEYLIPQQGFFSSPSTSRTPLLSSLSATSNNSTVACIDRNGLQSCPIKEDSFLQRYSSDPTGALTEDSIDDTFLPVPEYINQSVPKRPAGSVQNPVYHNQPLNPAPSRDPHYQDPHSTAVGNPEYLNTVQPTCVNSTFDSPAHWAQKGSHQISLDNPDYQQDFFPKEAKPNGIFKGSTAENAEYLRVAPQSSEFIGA
# strict inequality: IC50 < 3 nM yields fulfilled, everything else yields not fulfilled

Prompt line: Problem: For the compound CNC(=O)[C@H]1CC[C@@H](Nc2cc(Nc3ccnc(-c4cnn(S(=O)(=O)C5CC5)c4)n3)ncc2-c2ccn(C(F)F)n2)CC1 [Example 24] , is IC50 under 3 nM?
Response line: fulfilled

Prompt line: Problem: For the compound O=S(=O)(C1CC1)n1cc(-c2nccc(Nc3cc(NC4CCC(F)CC4)c(-c4ccn(C(F)F)n4)cn3)n2)cn1 (stereo not drawn) [Example 214] , is IC50 under 3 nM?
Response line: not fulfilled

Prompt line: Problem: For the compound OC1CCN(Nc2cc(Nc3ccnc(-c4cnn(CC(F)F)c4)n3)ncc2-c2ccn(C(F)F)n2)CC1 [Example 162] , is IC50 under 3 nM?
Response line: not fulfilled

Prompt line: Problem: For the compound CN(C)CC[C@H]1CC[C@@H](Nc2cc(Nc3nc(-c4cnn(S(=O)(=O)C5CC5)c4)ncc3F)ncc2-c2ccn(C(F)F)n2)CC1 [Example 325] , is IC50 under 3 nM?
Response line: fulfilled

Prompt line: Problem: For the compound CN(C)CC[C@H]1CC[C@@H](Nc2cc(Nc3ccnc(-c4cnn(S(=O)(=O)C5CC5)c4)n3)ncc2-c2ccn(C)n2)CC1 [Example 240] , is IC50 under 3 nM?
Response line: fulfilled

Prompt line: Problem: For the compound O=S(=O)(C1CC1)n1cc(-c2nccc(Nc3cc(OC4CCC(OC(F)F)CC4)c(-c4cnn(C(F)F)c4)cn3)n2)cn1 (stereo not drawn) [Example 70] , is IC50 under 3 nM?
Response line: not fulfilled
